Source: paper PMC9578396

System: Acinetobacter baumannii
Test Details: Broth microdilution MIC (CLSI), Acinetobacter baumannii
Type: cell-based
Assay Setup: Acinetobacter baumannii, strain ACM1015, ΔadeIJK ΔadeABC
Quantity Name: MIC (µg/mL)
Just the number please, in µg/mL, no unit attached.

Lookup: So what does the record say about MIC for CO/N=C(\C(=O)N[C@@H]1C(=O)N2C(C(=O)[O-])=C(C[N+]3(C)CCCC3)CS[C@H]12)c1csc(N)n1 [Cefepime] ?
Found: 0.25

Lookup: Could you do the same for `C[C@H]1[C@H](NC(=O)/C(=N\OC(C)(C)C(=O)O)c2csc(N)n2)C(=O)N1S(=O)(=O)O` , please?
Found: 1

Lookup: Entry to check: `O=C(O)c1c(F)ccc2c1OB(O)[C@@H]1C[C@H]21`
Found: 4

Lookup: Next up: `CC1=C[C@@H]2CN(C(=O)N2OS(=O)(=O)O)[C@@H]1C(N)=O`
Found: 16

Lookup: Please answer likewise for `C[C@@H](O)[C@H]1C(=O)N2C(C(=O)O)=C(S[C@@H]3CN[C@H](C(=O)N(C)C)C3)[C@H](C)[C@H]12`
Found: 0.06

====

Tested on: Pseudomonas aeruginosa
Test Details: Broth microdilution MIC (CLSI), Pseudomonas aeruginosa
Type: cell-based
Assay Setup: Pseudomonas aeruginosa, strain PAM1033, nfxB (MexCD-OprJ overexpression)
Excerpt: (i) Panels of engineered bacterial strains containing various combinations of porin and efflux mutations were used. The construction of all the strains used in the study is described in detail in references, [44], and [45]. (ii) KPC-producing clinical isolates and their derivatives that lost KPC plasmids were used also. These strains and their origins are described in the Table S2. (iii) Finally, KPC-producing clinical isolates enriched in strains with porin mutations were used. […]
Quantity Name: MIC
# answer = value followed by unit

Lookup: Sample `O=C(O)c1c(F)ccc2c1OB(O)[C@@H]1C[C@H]21` — what was its MIC?
Found: 128 µg/mL

Lookup: Now try `NC(=O)[C@@H]1CC[C@@H]2CN1C(=O)N2OS(=O)(=O)O` .
Found: 32 µg/mL

Lookup: Please give the result for `NCCONC(=O)[C@@H]1CC[C@@H]2CN1C(=O)N2OS(=O)(=O)O` too.
Found: 32 µg/mL

Lookup: Param item: `CC1=C[C@@H]2CN(C(=O)N2OS(=O)(=O)O)[C@@H]1C(N)=O`
Found: 4 µg/mL

====

Tested on: Klebsiella pneumoniae
Test Details: microbe, parasite or virus in culture
Format: cell-based
Assay Setup: Klebsiella pneumoniae, KPM4239, TolQ::S28F
Quantity Name: MIC (µg/mL)
// units = µg/mL; emit number, no label

Lookup: Requested field: MIC. Item: `O=C(O)c1c(F)ccc2c1OB(O)[C@@H]1C[C@H]21`
Found: 32

Lookup: And then CO/N=C(\C(=O)N[C@@H]1C(=O)N2C(C(=O)[O-])=C(C[N+]3(C)CCCC3)CS[C@H]12)c1csc(N)n1 [Cefepime] , what is it?
Found: 0.125

Lookup: Next molecule: `CC1=C[C@@H]2CN(C(=O)N2OS(=O)(=O)O)[C@@H]1C(N)=O`
Found: 16

Lookup: // query: `C[C@@H](O)[C@H]1C(=O)N2C(C(=O)O)=C(S[C@@H]3CN[C@H](C(=O)N(C)C)C3)[C@H](C)[C@H]12`
Found: 0.06

====

Test system: Acinetobacter baumannii
Test Details: Broth microdilution MIC (CLSI), Acinetobacter baumannii
Assay type: cell-based
Assay Setup: Acinetobacter baumannii, strain ACM1030, adeS (AdeABC overexpression)
Quantity Name: MIC (µg/mL)
Form entry: value (µg/mL) — number only.

Lookup: I'd like to know its MIC. The compound in question is C[C@H]1[C@H](NC(=O)/C(=N\OC(C)(C)C(=O)O)c2csc(N)n2)C(=O)N1S(=O)(=O)O [Aztreonam]
Found: 16

Lookup: Proceed to O=C(O)c1c(F)ccc2c1OB(O)[C@@H]1C[C@H]21 [Xeruborbactam]
Found: 16

Lookup: Now this one: CO/N=C(\C(=O)N[C@@H]1C(=O)N2C(C(=O)[O-])=C(C[N+]3(C)CCCC3)CS[C@H]12)c1csc(N)n1 [Cefepime]
Found: 32

====

Target Desc: PBP1a (Acinetobacter baumannii)
Sequence (A0ABX6CK30 entry or part of it): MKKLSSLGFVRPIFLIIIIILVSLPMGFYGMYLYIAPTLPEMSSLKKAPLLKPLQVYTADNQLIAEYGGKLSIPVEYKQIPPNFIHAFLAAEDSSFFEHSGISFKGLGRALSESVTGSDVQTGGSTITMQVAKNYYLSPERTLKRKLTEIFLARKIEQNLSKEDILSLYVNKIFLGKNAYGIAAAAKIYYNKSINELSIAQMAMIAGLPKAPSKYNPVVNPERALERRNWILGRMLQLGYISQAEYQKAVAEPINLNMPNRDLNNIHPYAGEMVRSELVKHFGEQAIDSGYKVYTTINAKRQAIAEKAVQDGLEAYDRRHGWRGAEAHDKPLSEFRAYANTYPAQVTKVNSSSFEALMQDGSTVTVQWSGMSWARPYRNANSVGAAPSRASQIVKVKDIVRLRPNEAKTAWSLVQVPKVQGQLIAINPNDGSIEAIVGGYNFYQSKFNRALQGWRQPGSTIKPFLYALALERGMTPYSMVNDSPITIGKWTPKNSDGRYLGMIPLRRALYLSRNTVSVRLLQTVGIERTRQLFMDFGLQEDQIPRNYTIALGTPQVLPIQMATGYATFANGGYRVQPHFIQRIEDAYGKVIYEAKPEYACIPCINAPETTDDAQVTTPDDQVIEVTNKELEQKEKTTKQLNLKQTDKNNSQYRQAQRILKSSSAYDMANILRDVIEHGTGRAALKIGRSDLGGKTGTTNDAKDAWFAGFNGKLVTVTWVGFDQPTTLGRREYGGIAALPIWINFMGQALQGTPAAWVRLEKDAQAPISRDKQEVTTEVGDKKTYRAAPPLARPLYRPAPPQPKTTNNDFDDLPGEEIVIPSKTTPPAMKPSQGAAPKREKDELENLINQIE
Test Details: Gel-based Bocillin FL competition PBP binding assay
Assay Setup: A. baumannii ACM1320 membranes; Bocillin FL step 0°C for xeruborbactam, 30°C for beta-lactams; read-out: Relative binding IC50, PBP1a
Quantity Name: pIC50
Scale: negative log10 of molar concentration, which is what pIC50 denotes.

Lookup: State the recorded pIC50 for this entry: `O=C(O)c1c(F)ccc2c1OB(O)[C@@H]1C[C@H]21`
Found: 5.85

====

Target Desc: PBP1b (Pseudomonas aeruginosa, UniProt G3XD31)
Sequence (G3XD31 entry or part of it): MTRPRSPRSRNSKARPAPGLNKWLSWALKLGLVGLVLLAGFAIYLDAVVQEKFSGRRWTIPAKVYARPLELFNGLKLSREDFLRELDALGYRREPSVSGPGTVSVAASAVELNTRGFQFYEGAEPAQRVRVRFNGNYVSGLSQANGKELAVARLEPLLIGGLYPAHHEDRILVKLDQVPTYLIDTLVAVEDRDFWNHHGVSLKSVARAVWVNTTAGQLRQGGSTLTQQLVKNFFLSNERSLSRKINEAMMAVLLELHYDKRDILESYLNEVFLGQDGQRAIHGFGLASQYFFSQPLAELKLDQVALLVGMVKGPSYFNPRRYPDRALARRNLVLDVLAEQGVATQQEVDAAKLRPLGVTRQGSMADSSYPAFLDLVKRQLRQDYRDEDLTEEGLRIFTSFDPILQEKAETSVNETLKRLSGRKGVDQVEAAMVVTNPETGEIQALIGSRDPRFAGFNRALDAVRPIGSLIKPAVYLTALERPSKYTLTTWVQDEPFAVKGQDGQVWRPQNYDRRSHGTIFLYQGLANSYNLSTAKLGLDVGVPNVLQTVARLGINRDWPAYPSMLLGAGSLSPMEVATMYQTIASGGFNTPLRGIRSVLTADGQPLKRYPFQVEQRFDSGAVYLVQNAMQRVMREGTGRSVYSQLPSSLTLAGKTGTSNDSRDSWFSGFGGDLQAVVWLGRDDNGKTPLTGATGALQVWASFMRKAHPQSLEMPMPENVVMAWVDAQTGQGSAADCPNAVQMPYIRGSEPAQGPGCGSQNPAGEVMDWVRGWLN
Test Details: Gel-based Bocillin FL competition PBP binding assay
Assay Setup: read-out: Relative binding IC50, PBP1b; P. aeruginosa PAM3034 membranes; Bocillin FL step 0°C for xeruborbactam, 30°C for beta-lactams
Quantity Name: IC50 (nM)
Could you give me the number in nM? Just the number is fine.

Lookup: What does the record list as IC50 for `C[C@@H](O)[C@H]1C(=O)N2C(C(=O)O)=C(S[C@@H]3CN[C@H](C(=O)N(C)C)C3)[C@H](C)[C@H]12` ?
Found: 230

====

For each of the compounds below, state its MIC.
Test system: Pseudomonas aeruginosa
Test Details: Broth microdilution MIC (CLSI), Pseudomonas aeruginosa
Type: cell-based
Assay Setup: Pseudomonas aeruginosa, strain PAM1033, nfxB (MexCD-OprJ overexpression)
From the text: (i) Panels of engineered bacterial strains containing various combinations of porin and efflux mutations were used. The construction of all the strains used in the study is described in detail in references, [44], and [45]. (ii) KPC-producing clinical isolates and their derivatives that lost KPC plasmids were used also. These strains and their origins are described in the Table S2. (iii) Finally, KPC-producing clinical isolates enriched in strains with porin mutations were used. […]
Respond with the bare value in µg/mL.

Lookup: Entry under review: O=C(NNC(=O)[C@@H]1CC[C@@H]2CN1C(=O)N2OS(=O)(=O)O)[C@@H]1CCCNC1 [Zidebactam] . Reported MIC?
Found: 0.125

Lookup: Now this one: CO/N=C(\C(=O)N[C@@H]1C(=O)N2C(C(=O)[O-])=C(C[N+]3(C)CCCC3)CS[C@H]12)c1csc(N)n1 [Cefepime]
Found: 4

Lookup: Entry to check: C[C@H]1[C@H](NC(=O)/C(=N\OC(C)(C)C(=O)O)c2csc(N)n2)C(=O)N1S(=O)(=O)O [Aztreonam]
Found: 1

Lookup: Now consider C[C@@H](O)[C@H]1C(=O)N2C(C(=O)O)=C(S[C@@H]3CN[C@H](C(=O)N(C)C)C3)[C@H](C)[C@H]12 [Meropenem] .
Found: 0.25

====

Test system: Escherichia coli
Test Details: Broth microdilution MIC (CLSI), Escherichia coli
Type: cell-based
Assay Setup: Escherichia coli, strain ECM5497, wild type; read-out: MIC
Consider the following molecules; for each one, report its MIC.

Lookup: Can you share its MIC? I mean this molecule: `NC(=O)[C@@H]1CC[C@@H]2CN1C(=O)N2OS(=O)(=O)O`
Found: 16 µg/mL

Lookup: Please do the same for `CC1=C[C@@H]2CN(C(=O)N2OS(=O)(=O)O)[C@@H]1C(N)=O` as well.
Found: 0.5 µg/mL

Lookup: Another molecule: `O=C(NNC(=O)[C@@H]1CC[C@@H]2CN1C(=O)N2OS(=O)(=O)O)[C@@H]1CCCNC1`
Found: 0.125 µg/mL

====

Target Desc: PBP1b (Pseudomonas aeruginosa)
Test Details: Gel-based Bocillin FL competition PBP binding assay
Assay Setup: P. aeruginosa PAM3034 membranes; Bocillin FL step 0°C for xeruborbactam, 30°C for beta-lactams; listed as xeruborbactam; read-out: Relative binding IC50, PBP1b
Quantity Name: pIC50
Schema: pIC50 number; meaning minus log10 of the concentration expressed in molar units.

Lookup: Query (compound): O=C(O)c1c(F)ccc2c1OB(O)[C@@H]1C[C@H]21 [Xeruborbactam] ; field requested: pIC50
Found: 5.15

====

Target Desc: PBP1a (Klebsiella pneumoniae, UniProt A0A0H3GZF1)
Sequence (A0A0H3GZF1 entry or part of it): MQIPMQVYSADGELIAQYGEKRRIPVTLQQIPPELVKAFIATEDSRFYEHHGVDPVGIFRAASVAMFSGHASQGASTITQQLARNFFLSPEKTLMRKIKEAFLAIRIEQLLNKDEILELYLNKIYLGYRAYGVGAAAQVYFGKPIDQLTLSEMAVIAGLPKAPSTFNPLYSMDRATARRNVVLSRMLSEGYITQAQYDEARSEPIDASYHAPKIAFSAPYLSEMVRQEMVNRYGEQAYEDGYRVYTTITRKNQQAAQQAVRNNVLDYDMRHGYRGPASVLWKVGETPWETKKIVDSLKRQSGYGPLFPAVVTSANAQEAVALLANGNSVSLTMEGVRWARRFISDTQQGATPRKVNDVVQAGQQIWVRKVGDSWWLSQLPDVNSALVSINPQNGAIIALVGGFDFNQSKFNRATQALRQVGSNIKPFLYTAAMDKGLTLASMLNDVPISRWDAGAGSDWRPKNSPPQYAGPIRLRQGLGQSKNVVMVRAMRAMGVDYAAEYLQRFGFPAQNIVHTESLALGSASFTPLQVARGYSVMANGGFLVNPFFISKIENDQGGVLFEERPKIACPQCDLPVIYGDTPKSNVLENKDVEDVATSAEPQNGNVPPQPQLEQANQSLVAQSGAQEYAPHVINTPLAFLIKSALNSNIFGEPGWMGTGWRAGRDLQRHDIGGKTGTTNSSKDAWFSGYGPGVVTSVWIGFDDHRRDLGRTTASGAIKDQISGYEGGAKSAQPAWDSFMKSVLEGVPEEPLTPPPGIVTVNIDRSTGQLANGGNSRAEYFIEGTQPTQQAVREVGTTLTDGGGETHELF
Test Details: Gel-based Bocillin FL competition PBP binding assay
Assay Setup: read-out: Relative binding IC50, PBP1a; K. pneumoniae KPM1001 membranes; Bocillin FL step 0°C for xeruborbactam, 30°C for beta-lactams
Quantity Name: IC50 (µM)
Give your result in µM as a bare value.

Lookup: # query: IC50 of entry C[C@@H](O)[C@H]1C(=O)N2C(C(=O)O)=C(S[C@@H]3CN[C@H](C(=O)N(C)C)C3)[C@H](C)[C@H]12 [Meropenem]
Found: 6.6

====

System: Escherichia coli
Test Details: Broth microdilution MIC (CLSI), Escherichia coli
Type: cell-based
Assay Setup: EC1078; PBP2 same as MG1655, PBP3 I332V
For each of the compounds below, state its MIC.
Format: numeric value only, no unit, no commentary.

Lookup: If you can, please state the reported MIC value of `CC1=C[C@@H]2CN(C(=O)N2OS(=O)(=O)O)[C@@H]1C(N)=O` .
Found: 8

Lookup: Likewise for `O=C(O)c1c(F)ccc2c1OB(O)[C@@H]1C[C@H]21` ?
Found: 32

Lookup: Next: `C[C@H]1[C@H](NC(=O)/C(=N\OC(C)(C)C(=O)O)c2csc(N)n2)C(=O)N1S(=O)(=O)O`
Found: 64

Lookup: // same read-out, input: `O=C(NNC(=O)[C@@H]1CC[C@@H]2CN1C(=O)N2OS(=O)(=O)O)[C@@H]1CCCNC1`
Found: 8
